Origin of the recorded values: patent US20140235701

# tested.target: NGF (nerve growth factor) (Homo sapiens, UniProt P01138 P01138:122-241)
# Sequence (P01138 122-241, one chain of several): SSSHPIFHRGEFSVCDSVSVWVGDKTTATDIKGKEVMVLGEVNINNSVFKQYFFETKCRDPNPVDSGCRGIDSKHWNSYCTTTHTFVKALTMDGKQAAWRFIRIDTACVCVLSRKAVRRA
# method: cell_activity; neurite; TF-1 0.028
# protocol.conditions: tags: R&D Systems; chain copies: 2
quantity: pIC50
# pIC50 = -log10(concentration in molar units)

In: Give recorded pIC50. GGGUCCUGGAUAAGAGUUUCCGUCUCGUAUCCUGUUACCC (ssRNA, as 82(1) except 2'-OMe C40) [SEQ ID NO: 82(18)]
Out: 9.61
